Biological target: UniProt P51813
Sequence (P51813 1-675): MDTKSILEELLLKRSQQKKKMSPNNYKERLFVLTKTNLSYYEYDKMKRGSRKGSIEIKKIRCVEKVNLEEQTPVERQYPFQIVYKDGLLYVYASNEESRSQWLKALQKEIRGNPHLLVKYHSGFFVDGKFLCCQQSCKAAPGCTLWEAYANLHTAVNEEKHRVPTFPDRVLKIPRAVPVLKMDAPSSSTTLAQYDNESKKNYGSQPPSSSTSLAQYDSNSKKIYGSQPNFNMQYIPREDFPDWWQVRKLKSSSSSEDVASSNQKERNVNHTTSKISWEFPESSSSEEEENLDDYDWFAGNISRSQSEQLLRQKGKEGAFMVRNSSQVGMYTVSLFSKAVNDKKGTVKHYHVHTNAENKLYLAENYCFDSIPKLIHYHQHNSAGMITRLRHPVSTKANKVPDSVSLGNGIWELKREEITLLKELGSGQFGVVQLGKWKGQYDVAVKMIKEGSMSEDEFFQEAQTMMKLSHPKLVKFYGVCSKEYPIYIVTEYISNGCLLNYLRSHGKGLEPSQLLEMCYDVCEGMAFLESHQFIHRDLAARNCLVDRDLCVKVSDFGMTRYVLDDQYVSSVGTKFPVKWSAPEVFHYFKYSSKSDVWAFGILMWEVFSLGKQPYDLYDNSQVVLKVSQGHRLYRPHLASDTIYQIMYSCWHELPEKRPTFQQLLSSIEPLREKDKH
Test: Kinase panel profiling at 1 µmol/L (MSA or IMAP), percentage inhibition
Type: biochemical
Details: BMX kinase assay; 1 µmol/L single concentration; read-out: %-inhibition BMX
List of inhibition at 1 µM values.
Give just the numeric value; % need not be written.

Solved cases (6 shown):
[
  {
    "Molecule": "CN1CCN(c2ccc(C(=O)Nc3n[nH]c4ccc(Cc5cc(F)cc(F)c5)cc34)c(NC3CCOCC3)c2)CC1 [entrectinib]",
    "Units Symbol": "%",
    "inhibition at 1 µM": 99
  },
  {
    "Molecule": "Cn1cnc2c(F)c(Nc3ccc(Br)cc3Cl)c(C(=O)NOCCO)cc21 [selumetinib]",
    "Units Symbol": "%",
    "inhibition at 1 µM": 2.24
  },
  {
    "Molecule": "Cn1cnc2c(F)c(Nc3ccc(Br)cc3F)c(C(=O)NOCCO)cc21 [binimetinib]",
    "Units Symbol": "%",
    "inhibition at 1 µM": 4
  },
  {
    "Molecule": "FC(F)(F)c1ccc(CNc2ccc(Cc3c[nH]c4ncc(Cl)cc34)cn2)cn1 [pexidartinib]",
    "Units Symbol": "%",
    "inhibition at 1 µM": -0.565
  },
  {
    "Molecule": "CCc1nc(C(N)=O)c(Nc2ccc(N3CCC(N4CCN(C)CC4)CC3)c(OC)c2)nc1NC1CCOCC1 [gilteritinib]",
    "Units Symbol": "%",
    "inhibition at 1 µM": 60
  },
  {
    "Molecule": "C[C@H](Nc1ncnc2nc[nH]c12)c1cc2cccc(Cl)c2c(=O)n1-c1ccccc1 [duvelisib]",
    "Units Symbol": "%",
    "inhibition at 1 µM": 1.46
  }
]

query: Requested field: inhibition at 1 µM. Item: Cc1cc(Nc2ncnc3ccc(NC4=NC(C)(C)CO4)cc23)ccc1Oc1ccn2ncnc2c1 [tucatinib]
result: 6.62

query: Consider next the molecule Cn1cc(-c2cc3c(N4CCN(c5ncc([C@@](C)(N)c6ccc(F)cc6)cn5)CC4)ncnn3c2)cn1 [avapritinib] in the same way.
result: 21
